assay: Oral bioavailability of hydrocodone conjugates in rats; conditions: ratio of oral to intranasal AUC (% HC)
No end group written: not given here.
Give yes when the value for Oral:IN Index AUC is at least 2. Give no when it is less.

# bool: Oral:IN Index AUC of Glu-Glu-Phe-Phe-Ile-HC (EEFFI-hydrocodone) >= 2
no

# bool: Oral:IN Index AUC of Gly-Gly-Pro-Pro-Ile-HC (GGPPI-hydrocodone) >= 2
yes

# bool: Oral:IN Index AUC of Gly-Gly-Glu-Glu-Ile-HC (GGEEI-hydrocodone) >= 2
no

# bool: Oral:IN Index AUC of `Lys-Lys-Ile-HC` >= 2
no

# bool: Oral:IN Index AUC of `Pro-Ile-Ile-HC` >= 2
no

# bool: Oral:IN Index AUC of Asp-Asp-Gly-Gly-Ile-HC (DDGGI-hydrocodone) >= 2
no

# bool: Oral:IN Index AUC of `Pro-Leu-Ile-HC` >= 2
no

# bool: Oral:IN Index AUC of Lys-Lys-Pro-Pro-Ile-HC (KKPPI-hydrocodone) >= 2
no

# bool: Oral:IN Index AUC of `Tyr-Tyr-Ile-HC` >= 2
yes

----------
Parameter: bioavailability (% HC) oral Cmax. Scope: all listed entries.
assay: Oral bioavailability of hydrocodone conjugates in rats; details: oral, rats, relative to hydrocodone
No end group written: not given here.
// units = % HC; emit number, no label

Determine from records and report bioavailability (% HC) oral Cmax for `Pro-Ile-Ile-HC`
99

Determine from records and report bioavailability (% HC) oral Cmax for Gly-Gly-Pro-Pro-Ile-HC (GGPPI-hydrocodone)
121

Determine from records and report bioavailability (% HC) oral Cmax for Tyr-Tyr-Pro-Pro-Ile-HC (YYPPI-hydrocodone)
213

----------
Parameter: Oral:IN Index AUC. Scope: all listed entries.
test: Oral bioavailability of hydrocodone conjugates in rats; settings: ratio of oral to intranasal AUC (% HC)
No end group written: not given here.
When you answer, write just the number.

For orientation, consider the following solved cases.
{"Substance": "Pro-Pro-Leu-HC", "Quantity kind": "Oral:IN Index AUC", "Quantitative result": 2.04}
{"Substance": "Glu-Glu-Phe-Phe-Phe-Hydrocodone (EEFFF-hydrocodone) [Glu-Glu-Phe-Phe-Phe-HC]", "Quantity kind": "Oral:IN Index AUC", "Quantitative result": 3.07}
{"Substance": "Lys-Lys-Asp-Asp-Ile-HC (KKDDI-hydrocodone)", "Quantity kind": "Oral:IN Index AUC", "Quantitative result": 2.31}

Next up:
Determine from records and report Oral:IN Index AUC for Asp-Asp-Asp-Asp-Ile-HC (DDDDI-hydrocodone)
2.19

----------
Parameter: bioavailability (% HC) oral Cmax. Scope: all listed entries.
test: Oral bioavailability of hydrocodone conjugates in rats; conditions: oral, rats, relative to hydrocodone
No end group written: not given here.
// units = % HC; emit number, no label

{"Substance": "Gly-Gly-Glu-Glu-Ile-HC (GGEEI-hydrocodone)", "Measurement units": "% HC", "bioavailability (% HC) oral Cmax": 119}

Determine from records and report bioavailability (% HC) oral Cmax for `Pro-Pro-Leu-HC`
108

Determine from records and report bioavailability (% HC) oral Cmax for Glu-Glu-Asp-Asp-Ile-HC (EEDDI-hydrocodone)
129

----------
experiment: Oral bioavailability of hydrocodone conjugates in rats; settings: oral, rats, relative to hydrocodone
No end group written: not given here.
Quantity kind: bioavailability (% HC) oral Cmax
// units = % HC; emit number, no label

For orientation, consider the following solved cases.
{"Substance": "Lys-Lys-Ile-HC", "Quantitative result": 76}
{"Substance": "Tyr-Tyr-Phe-Phe-Ile-HC", "Quantitative result": 63}
{"Substance": "Asp-Asp-Ile-HC", "Quantitative result": 238}
{"Substance": "Tyr-Tyr-Ile-HC", "Quantitative result": 234}
{"Substance": "Glu-Glu-Gly-Gly-Phe-HC (EEGGF-hydrocodone)", "Quantitative result": 112}

Determine from records and report bioavailability (% HC) oral Cmax for Asp-Asp-Phe-Phe-Ile-HC (DDFFI-hydrocodone)
167
